# tgt: DNA polymerase beta (Homo sapiens)
# method description: qHTS Assay for Inhibitors of DNA Polymerase Beta
# condition context: Pol beta primer extension/strand displacement, fluorescence kinetic; series mostly up to 114 µM
In all, about 340,000 compounds went through this assay and about 4,500 (1.3%) were called active. Not shown: some 5% with an inconclusive outcome. Calls follow the shape of the dose curve; as a rule, active = well fitted inhibition curve with a large enough effect; inconclusive = small, poorly fitted or top-dose-only effect, or another doubt; inactive = no such curve, though single readings can be large or run the other way. This is one part of a sample in which actives are shown more often than they occur.
Pick one: active, inactive

Cc1cc(=O)oc2ccc(OCC(=O)O)cc12 :: inactive
COc1cccc2c(C)c(C(=O)O)[nH]c12 :: active
O=C(CCN1C(=O)/C(=C/c2cccs2)SC1=S)NNC(=O)c1cccc(O)c1 :: inactive
COc1cc2c(C(=O)O)c(C)n(C)c2c2ccccc12 :: inactive
Cc1c(C(=O)N/N=C/c2ccccc2)[nH]c2c([N+](=O)[O-])cccc12 :: inactive

Problem: What classification did Cc1cc(=O)oc2cc(OCC(=O)Nc3nnc(C4CC4)s3)ccc12 end up with in this test?
Result: inactive

Problem: What classification did Cc1ccc(O)c(/C=N/NC(=O)COc2ccc3c(C)cc(=O)oc3c2)c1 end up with in this test?
Result: active

Problem: What classification did CCOC(=O)c1ccc(N2C(=O)c3n[nH]c(-c4ccco4)c3C2c2ccc(O)cc2)cc1 (stereo unspecified) end up with in this test?
Result: inactive

Problem: What classification did Cc1ccc(/C=C2\SC(=S)N(CCC(=O)Nc3ccc(O)cc3)C2=O)cc1 end up with in this test?
Result: inactive

Problem: What classification did Cc1ccccc1-c1nc2scc(CCNC(=O)C(=O)Nc3ccc(F)cc3F)n2n1 end up with in this test?
Result: inactive

Problem: What classification did O=C(CCCN1C(=O)/C(=C\c2ccco2)SC1=S)Nc1cccc2ccccc12 end up with in this test?
Result: active

---

# tgt: DNA polymerase beta (Homo sapiens) (UniProt P06746)
# method description: qHTS Assay for Inhibitors of DNA Polymerase Beta; also: potency is read from the fitted curve at half-maximal effect
# condition context: Pol beta primer extension/strand displacement, fluorescence kinetic; series mostly up to 114 µM
# Protocol: The base excision repair system in human cells is a target for therapeutic modulation of the response to irradiation treatment and DNA-damaging drugs. […] A stepwise description of the 1536-well assay is shown in next Table. […] The plates were incubated for 15 min at room temperature, and 1 uL substrate (50 nM final concentration) were added to start the reaction and immediately read at 0 min read on Viewlux reader. […]
Hit rate of the full screen: of about 340,000 compounds, about 4,500 (1.3%) were called active. Inconclusive results (about 5%) are left out. Shown is part of a subset that was picked to be rich in actives.
measurement type: Potency

O=C(NCCc1ccccc1)c1ccc2c(c1)N(Cc1ccc(F)cc1)C(=O)c1ccccc1S2(=O)=O :: inactive
COC(=O)c1ccc(COc2ccc(/C=C/C(=O)c3ccc(OC)c(CSCC(=O)O)c3)cc2OC)cc1 :: 31.6 µM (active)
COc1cc(NC(=O)CSc2nc3nc(C)c(Cc4ccc(C)cc4)c(C)n3n2)cc(OC)c1OC :: inactive
COc1cc(CNC(=O)c2cc3n(n2)CCCN(Cc2cccc(F)c2)C3=O)cc(OC)c1OC :: inactive
Cc1ccc(CN2CCC(CNC(=O)c3cnn(-c4ccccc4Cl)c3C3CCN(C(=O)OC(C)(C)C)CC3)CC2)cc1 :: inactive
Cc1ccc(NC(=O)c2nc(S(=O)(=O)Cc3cccc(C)c3)ncc2Cl)cc1 :: inactive
COc1ccc(C(=O)/C=C/c2ccc(-c3ccccc3)cc2)cc1CSCC(=O)O :: inactive
COc1cccc(NC(=O)CSC2=Nc3ccccc3C3=NC(CC(=O)NC4CCCCC4)C(=O)N23)c1 (centres undefined) :: inactive

Here is another compound to look at.
Problem: State, in one line, measured Potency of Cc1ccc(CNC(=O)CCc2c(C)nn(-c3ccc(N4CCCC4)nn3)c2C)cc1
Result: inactive

---

# tgt: DNA polymerase beta (Homo sapiens)
# method description: qHTS Assay for Inhibitors of DNA Polymerase Beta; also: potency is read from the fitted curve at half-maximal effect
# condition context: Pol beta primer extension/strand displacement, fluorescence kinetic; series mostly up to 114 µM
The whole screen tested about 340,000 compounds, of which about 4,500 (1.3%) were called active. Not shown: some 5% with an inconclusive outcome. The sample as a whole holds a higher share of actives than the screen did.
measurement type: Potency

Field: example entries. Status: answers known.
COc1cccc(-c2nnc3n(CCc4ccccc4)c(=O)c4ccccc4n23)c1O :: inactive
Cc1nn(-c2ccc(N3CCCCC3)nn2)c(C)c1CCC(=O)NCc1ccc(F)cc1 :: inactive
Cn1c(NN)nc2sc3c(c2c1=O)CCC3 :: 89.1 µM (active)
O=C(COC(=O)CNC(=O)c1ccco1)Nc1ccc(F)cc1 :: inactive

List the reported Potency of each molecule below.
1. CCc1nnc(NS(=O)(=O)c2ccc(NC(=S)NC(=O)/C=C/c3cccs3)cc2)s1
2. O=C(O)c1ccc(Cn2c(SCc3ccc(F)cc3)nc3ccncc32)cc1
3. CCc1nnc(NS(=O)(=O)c2ccc(NC(=S)NC(=O)c3cccs3)cc2)s1
4. CCN(CC)c1ccc(NC(=O)Cn2nc3c(cc2=O)CCCC3)c(C)c1
5. Cc1ccc2nc(-c3ccc(O)cc3)c(Nc3ccc4c(c3)OCO4)n2c1
6. CCOC(=O)c1c(NC(=S)NC(=O)/C=C/c2cccs2)sc(C)c1C

Result:
["89.1 µM (active)", "inactive", "inactive", "inactive", "inactive", "inactive"]

---

# tgt: DNA polymerase beta (Homo sapiens)
# method description: qHTS Assay for Inhibitors of DNA Polymerase Beta
# condition context: Pol beta primer extension/strand displacement, fluorescence kinetic; series mostly up to 114 µM
In all, about 340,000 compounds went through this assay and about 4,500 (1.3%) were called active. Not shown: some 5% with an inconclusive outcome. Calls follow the shape of the dose curve; as a rule, active = well fitted inhibition curve with a large enough effect; inconclusive = small, poorly fitted or top-dose-only effect, or another doubt; inactive = no such curve, though single readings can be large or run the other way. What follows is part of a selection rich in actives, with near analogues and random picks from the rest.
Pick one: true (1) for active, false (0) for inactive

CC(C)C(=O)Nc1nc2c(s1)CC(C(C)(C)C)CC2 (configuration not stated) :: false (0)

Problem: What classification did CCCCCOc1ccc(/C=C/C(=O)NCCc2nc3ccccc3[nH]2)cc1OC end up with in this test?
Result: true (1)

Problem: What classification did COc1ccc(C2CC(c3ccccc3)=NN2C(=O)COC(=O)COc2ccccc2)cc1 (configuration not stated) end up with in this test?
Result: false (0)

Problem: What classification did CCOC(=O)c1ccc(-c2ccc(/C=C(\C#N)C(=O)Nc3ccc(C)cc3)o2)cc1 end up with in this test?
Result: false (0)

Problem: What classification did COC(=O)c1ccc(NC(=O)CSc2n[nH]c(-c3ccccc3)n2)cc1 end up with in this test?
Result: false (0)

Problem: What classification did CC1CCCN(c2csc3ccc(F)cc3c2=O)C1 (configuration not stated) end up with in this test?
Result: false (0)

Problem: What classification did O=C(Nc1ccc(NC(=O)c2cccs2)cn1)c1ccco1 end up with in this test?
Result: false (0)

Problem: What classification did Cc1ccc2nc(/C(C#N)=C/c3ccccc3F)[nH]c2c1 end up with in this test?
Result: false (0)

Problem: What classification did Cc1cccc(C(=O)NCCc2nc3ccccc3n2Cc2ccccc2Cl)c1 end up with in this test?
Result: false (0)

Problem: What classification did Cc1cccc(N2CCN(C(=O)c3oc(=O)c4ccccc4c3-c3ccccc3)CC2)c1C end up with in this test?
Result: false (0)

Problem: What classification did COc1ccc(OC(C)C(=O)NCCc2nc3ccccc3[nH]2)cc1 (configuration not stated) end up with in this test?
Result: false (0)

Problem: What classification did CCOc1ccc2nc(N3CCCC(C(=O)Nc4cc(C)ccc4C)C3)sc2c1 (configuration not stated) end up with in this test?
Result: false (0)

Problem: What classification did Cc1c(Cl)cccc1NC(=O)C(=O)NCCc1csc2nc(-c3ccccc3F)nn12 end up with in this test?
Result: false (0)

Problem: What classification did O=C(Cc1ccc(Cl)cc1)NC1CCS(=O)(=O)C1 (configuration not stated) end up with in this test?
Result: false (0)

Problem: What classification did COc1cccc(OCc2nnc3n2N=C(c2ccccc2)C(CC(=O)O)S3)c1 (configuration not stated) end up with in this test?
Result: false (0)

Problem: What classification did COc1ccc(OCc2nnc3n2N=C(c2ccccc2)C(CC(=O)O)S3)cc1 (configuration not stated) end up with in this test?
Result: true (1)

Problem: What classification did COc1cccc(Cn2c(SCc3ccc(C(=O)N4CCC(C)CC4)cc3)nc3ccncc32)c1 end up with in this test?
Result: false (0)

Problem: What classification did O=C(NC(=O)c1ccc(Cl)c(Cl)c1)OC1CCS(=O)(=O)C1 (configuration not stated) end up with in this test?
Result: true (1)

Problem: What classification did COc1ccc(OC)c(NC(=O)CSc2nc3ccccc3nc2N2CCCCC2)c1 end up with in this test?
Result: false (0)

Problem: What classification did Cc1ccc(C)c(N2CCN(C(c3ccccc3)c3nnc(-c4ccccc4)o3)CC2)c1 (configuration not stated) end up with in this test?
Result: false (0)

Problem: What classification did O=C(NC(=S)NC1CCS(=O)(=O)C1)c1cccc([N+](=O)[O-])c1 (configuration not stated) end up with in this test?
Result: false (0)

Problem: What classification did CCOC(=O)c1ccc(NC(=O)c2csc3c2CCCCC3)cc1 end up with in this test?
Result: false (0)
